Every entry's value here was drawn from ChEMBL document CHEMBL1157539.

Test system: Plasmodium falciparum
experimental protocol: GSK_TCMDC: Inhibition of Plasmodium falciparum 3D7 in whole red blood cells, using parasite LDH activity as an index of growth. Test compounds present at 2uM
Assay type: functional

[
  {
    "compound": "COc1c(C2CCN(CCCCNC(=O)c3ccc(-c4ccc(Cl)cc4)c(OCCN(C)C)c3)CC2)ccc2c1CCCC2",
    "Inhibition, %": 100
  },
  {
    "compound": "CC(C)Oc1ccc2c(c1)OC(c1ccccc1)(C(F)(F)F)NC2=O (centres undefined)",
    "Inhibition, %": 100
  },
  {
    "compound": "Cc1cc(Nc2ccncc2)n2nc(C)c(-c3ccc(Cl)cc3)c2n1",
    "Inhibition, %": 100
  },
  {
    "compound": "CC1CCCN(Cc2c(O)ccc3c(O)c(-c4nc5ccccc5s4)c(=N)oc23)C1 (centres undefined)",
    "Inhibition, %": 100
  },
  {
    "compound": "Cc1cc(C)cc(OCC(O)CN(Cc2cc(Cl)cc(Cl)c2)C(=O)Nc2ccc([N+](=O)[O-])cc2)c1 (centres undefined)",
    "Inhibition, %": 95
  },
  {
    "compound": "CCNc1cc(C(=O)N[C@@H](Cc2ccccc2)[C@H](O)CNC(CC)c2cccc(Cl)c2)cc(N2CCCCS2(=O)=O)c1.Cl (some centres undefined)",
    "Inhibition, %": 100
  },
  {
    "compound": "O=C(NCCCCN1CCC(c2ccc3c(c2OCC(O)c2ccc(Cl)cc2)CCCC3)CC1)c1ccc(-c2ccc(C(F)(F)F)cc2)cc1 (centres undefined)",
    "Inhibition, %": 89
  },
  {
    "compound": "COc1ccc(-c2ccc(NC(=O)c3cccc(Cl)c3)cc2)cc1CN1CCN(C)CC1.O=C(O)C(F)(F)F",
    "Inhibition, %": 90
  },
  {
    "compound": "COc1ccc(/N=[N+](\\[O-])c2ccccc2/[N+]([O-])=N/c2ccc(OC)cc2)cc1",
    "Inhibition, %": 84
  },
  {
    "compound": "Cc1cc(-c2cc(-c3ccc(OCCN(C)C)cc3)[nH]c2-c2ccc3c(c2)CCC3=NO)ccn1",
    "Inhibition, %": 100
  },
  {
    "compound": "O=C(/C=C/c1ccc(Cl)c(Cl)c1)NCCCCCN1CCC(CCNC(=O)C2(c3ccc(Cl)cc3)CC2)CC1",
    "Inhibition, %": 91
  },
  {
    "compound": "CN(C)c1ccc(-c2csc(C(=O)NCC3CCN(Cc4ccc(C(C)(C)C)cc4)C3)c2)cc1.O=C(O)C(F)(F)F (centres undefined)",
    "Inhibition, %": 97
  },
  {
    "compound": "CC(C)(C)c1ccc(CN2CCC(NC(=O)c3ccc(-c4cccc(C(F)(F)F)c4)s3)CC2)cc1.O=C(O)C(F)(F)F",
    "Inhibition, %": 100
  },
  {
    "compound": "CC(=O)c1ccc2c(c1)C(NC(=O)c1cccc(Cl)c1Cl)C(CO)C(C)(C)O2 (centres undefined)",
    "Inhibition, %": 99
  },
  {
    "compound": "CC(C)OC(=O)c1ccc(NC(=O)N[C@@H](Cc2ccc(O)cc2)C(=O)NC2CC3CCC(C2)N3Cc2ccccc2)cc1.O=C(O)C(F)(F)F (some centres undefined)",
    "Inhibition, %": 92
  },
  {
    "compound": "CC(C)c1ccc(NC(=O)NC2CCN(CCCCCNC(=O)/C=C/c3ccc(Cl)c(Cl)c3)CC2)cc1",
    "Inhibition, %": 100
  },
  {
    "compound": "Br.c1cc(C2=NC3CCCCC3N2)ccc1OCCCCCOc1ccc(C2=NC3CCCCC3N2)cc1 (centres undefined)",
    "Inhibition, %": 100
  },
  {
    "compound": "COc1ccc2[nH]ccc(=NN=Cc3ccccc3)c2c1",
    "Inhibition, %": 100
  },
  {
    "compound": "CCN(CC)CCN(Cc1ccc(-c2ccc(C(F)(F)F)cc2)cc1)C(=O)Cn1c(CCc2c(F)ccc(F)c2F)nc(=O)c2ccccc21.O=C(O)C(O)C(O)C(=O)O",
    "Inhibition, %": 98
  },
  {
    "compound": "Cc1ccc(S(=O)(=O)NC2CCN(CCNC(=O)Nc3cc(C)nc4ccccc34)C2)cc1 (centres undefined)",
    "Inhibition, %": 97
  },
  {
    "compound": "COc1cc(NCCCCNc2ccc(Cl)c(Cl)c2)nc2ccccc12",
    "Inhibition, %": 100
  },
  {
    "compound": "O=C(Nc1cc(F)cc(F)c1)N1CCOC(CCN2CCC3(CCc4ccccc43)CC2)(c2ccc(Cl)c(Cl)c2)C1 (centres undefined)",
    "Inhibition, %": 100
  },
  {
    "compound": "CC1(C)N=C(N)N=C(N)N1c1cc(Cl)c(Cl)c(Cl)c1.CCS(=O)(=O)O",
    "Inhibition, %": 93
  },
  {
    "compound": "CC1(C)OC[C@]2(C)[C@@H](CC[C@]3(C)C4=CC(=O)CCC4CC[C@@H]23)O1 (some centres undefined)",
    "Inhibition, %": 97
  },
  {
    "compound": "CCCC(CNCc1cccc(OC(F)(F)C(F)F)c1)CNc1cc(=O)c2ccccc2[nH]1 (centres undefined)",
    "Inhibition, %": 100
  },
  {
    "compound": "COc1ccc(CNC2CCN(C)CC2)cc1-c1ccc(OC)c(S(=O)(=O)NCc2ccccc2)c1.O=C(O)C(F)(F)F",
    "Inhibition, %": 99
  },
  {
    "compound": "CCOC(=O)CCCCCNC[C@H](O)c1ccccc1.Cl",
    "Inhibition, %": 98
  },
  {
    "compound": "CCn1c(-c2nonc2N)nc2c(-c3cccc(NC(=O)Nc4ccc(C#N)cc4)c3)ncc(OCCCN)c21.O=C(O)C(F)(F)F",
    "Inhibition, %": 85
  },
  {
    "compound": "Cc1cc(NCCCCCCCCNc2cc(C)nc3ccccc23)c2ccccc2n1.Cl",
    "Inhibition, %": 100
  },
  {
    "compound": "CC(C)C[C@H](NC(=O)c1cc2ccccc2s1)C(=O)N[C@H]1CCN(Cc2ccc(OCCN3CCNCC3)c3ccccc23)C1.O=C(O)C(F)(F)F",
    "Inhibition, %": 100
  },
  {
    "compound": "COc1ccc(NCCCNc2ccnc3ccccc23)cc1",
    "Inhibition, %": 88
  },
  {
    "compound": "N#Cc1ccc(N[C@@H](CC2CCCCC2)C(=O)NCc2cc(Cl)cc(Cl)c2)c2ccccc12.O=C(O)C(F)(F)F",
    "Inhibition, %": 94
  },
  {
    "compound": "Cn1cncc1CCN(Cc1ccc(-c2ccc(C(F)(F)F)cc2)cc1)C(=O)Cn1c(SCc2cccc(F)c2F)cc(=O)c2ccccc21",
    "Inhibition, %": 99
  },
  {
    "compound": "Cc1cc(C(=O)NCc2ccc(-c3c(C)noc3C)cc2)n(-c2ccccc2)n1",
    "Inhibition, %": 92
  }
]
